Entry source: the supplement of paper PMC9170038

Tested on: MS2 coat protein
Test: apparent KD of MS2 coat protein; higher = weaker reporter binding
Details: Eterna round: R107; input ligand: arginine 13.2 mM
MEASURED_PROPERTY: apparent KD of MS2 coat protein (nM)
Give bare numbers, in nM.

Reference set (2 entries):
MACROMOLECULE_SEQUENCE	apparent KD of MS2 coat protein / nM
GGGCGAGUGGACCGGCGUGCUCCGCUCCGUCGAGGACCGGUACGGCCGCCACUCGACAUGAGGAUCACCCAUGUGCGAGCUCGCG [#1 Exclusion - Tryptophan A Attempt #14 (HarryS)]	32.7
AUCGUACCUGAUGAUACCAGCAAUUGCUCGUAACAUGAGGAUCACCCAUGUGACCAGUGAUGCCCUUGGCAGCAUGAUCGGUGCA [Same State - Theophylline B (Freestyle 20)]	45.7

[Q] Read the entry GGAUAGAUAGGAGAUACCAGAUACAUAAACAUGAGGAUCACCCAUGUGUCUGCACUAAGUAUCCCUUGGCAGCUCGGAGAUCUGA [#17 Same State - Theophylline B] and write its reported apparent KD of MS2 coat protein.
[A] 17.4
